The measured values listed here are drawn from patent US10221163B2.

Catalogue of IC50 readings, one per entry.
- targetEntity: NDM-1 (Klebsiella pneumoniae)
- Sequence (C7C422 whole entry, looked up, species assumed): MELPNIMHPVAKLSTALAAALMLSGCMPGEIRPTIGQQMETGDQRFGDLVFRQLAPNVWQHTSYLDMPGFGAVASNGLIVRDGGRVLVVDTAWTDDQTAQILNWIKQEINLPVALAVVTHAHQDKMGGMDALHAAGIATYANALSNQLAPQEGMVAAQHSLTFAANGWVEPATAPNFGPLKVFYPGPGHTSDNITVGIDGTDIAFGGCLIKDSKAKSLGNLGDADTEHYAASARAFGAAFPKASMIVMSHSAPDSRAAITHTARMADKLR
- protocolDetails: biochemical
- Assay type: biochemical
- conditionLabel: fluorescence assay, CCF2-FA substrate, 1 pM enzyme, 2 hours at 25° C.; read-out: NDM-1 IC50

>  <compound>
NCc1nc2cc(-c3ccc(S(=O)(=O)NC[C@@H](O)CN)c(S(N)(=O)=O)c3-c3nn[nH]n3)ccc2s1

>  <IC50 [nM]>
0.136

$$$$
>  <compound>
CC1(CN)CN(S(=O)(=O)c2ccc(-c3cccc4sc(N)nc34)c(-c3nnn[nH]3)c2S(N)(=O)=O)C1.O=C(O)C(F)(F)F [Example 101, 2,2,2-trifluoroacetate]

>  <IC50 [nM]>
0.288

$$$$
>  <compound>
NC[C@H](CO)NS(=O)(=O)c1ccc(-c2cccc(N)n2)c(-c2nn[nH]n2)c1S(N)(=O)=O

>  <IC50 [nM]>
3.25

$$$$
>  <compound>
CN1CC(N(C)S(=O)(=O)c2ccc(-c3cccc4sc(N)nc34)c(-c3nnn[nH]3)c2S(N)(=O)=O)C1.O=C(O)C(F)(F)F [Example 107, 2,2,2-trifluoroacetate]

>  <IC50 [nM]>
0.184

$$$$
>  <compound>
NC[C@@H](CO)NS(=O)(=O)c1ccc(-c2cccc3[nH]c(N)nc23)c(-c2nnn[nH]2)c1S(N)(=O)=O

>  <IC50 [nM]>
0.0322

$$$$
>  <compound>
CNCCCN(C)S(=O)(=O)c1ccc(-c2cccc3sc(N)nc23)c(-c2nnn[nH]2)c1S(N)(=O)=O.O=C(O)C(F)(F)F [Example 93, 2,2,2-trifluoroacetate]

>  <IC50 [nM]>
6.35

$$$$
>  <compound>
NS(=O)(=O)c1c(S(=O)(=O)N[C@@H]2CCNC2)ccc(-c2cccc(Nc3nc(CO)cs3)c2)c1-c1nn[nH]n1

>  <IC50 [nM]>
0.0496

$$$$
>  <compound>
NCCNS(=O)(=O)c1ccc(-c2cccc3[nH]c(CCN)nc23)c(-c2nn[nH]n2)c1S(N)(=O)=O

>  <IC50 [nM]>
0.208

$$$$
>  <compound>
C[C@@H](CN)NS(=O)(=O)c1ccc(-c2cc(F)cc3[nH]c(N)nc23)c(-c2nn[nH]n2)c1S(N)(=O)=O

>  <IC50 [nM]>
0.161

$$$$
